# system tested: PI3Kγ (Homo sapiens, UniProt P48736)
# Construct: made in house
# Sequence (P48736 whole entry): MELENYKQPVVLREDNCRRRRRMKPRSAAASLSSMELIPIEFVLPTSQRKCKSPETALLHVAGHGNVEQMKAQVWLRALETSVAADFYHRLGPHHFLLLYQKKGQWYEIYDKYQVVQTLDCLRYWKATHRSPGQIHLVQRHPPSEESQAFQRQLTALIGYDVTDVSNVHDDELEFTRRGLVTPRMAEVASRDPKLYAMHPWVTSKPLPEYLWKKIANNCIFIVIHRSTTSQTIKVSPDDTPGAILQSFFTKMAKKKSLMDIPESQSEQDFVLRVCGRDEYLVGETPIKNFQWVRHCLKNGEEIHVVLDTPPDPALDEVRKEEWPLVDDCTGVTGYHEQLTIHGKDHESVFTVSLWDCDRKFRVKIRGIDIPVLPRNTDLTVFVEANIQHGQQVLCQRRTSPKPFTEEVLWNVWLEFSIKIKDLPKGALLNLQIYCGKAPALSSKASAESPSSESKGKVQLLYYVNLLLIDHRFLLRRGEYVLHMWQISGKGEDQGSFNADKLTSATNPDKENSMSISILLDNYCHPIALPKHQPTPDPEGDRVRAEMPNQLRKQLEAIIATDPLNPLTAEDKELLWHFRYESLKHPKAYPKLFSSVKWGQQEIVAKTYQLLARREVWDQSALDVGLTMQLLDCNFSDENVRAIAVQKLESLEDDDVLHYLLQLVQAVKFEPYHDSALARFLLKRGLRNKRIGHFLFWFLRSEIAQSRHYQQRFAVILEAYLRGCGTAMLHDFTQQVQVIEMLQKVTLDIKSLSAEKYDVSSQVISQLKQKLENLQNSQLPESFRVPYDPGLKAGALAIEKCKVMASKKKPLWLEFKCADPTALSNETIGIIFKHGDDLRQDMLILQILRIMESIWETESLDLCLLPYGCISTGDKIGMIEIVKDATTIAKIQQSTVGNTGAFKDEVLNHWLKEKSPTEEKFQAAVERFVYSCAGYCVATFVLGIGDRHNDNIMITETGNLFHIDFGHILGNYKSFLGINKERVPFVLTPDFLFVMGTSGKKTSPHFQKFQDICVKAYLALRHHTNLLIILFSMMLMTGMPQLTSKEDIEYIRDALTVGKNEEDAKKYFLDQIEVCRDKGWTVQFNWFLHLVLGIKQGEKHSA
# experiment summary: TR-FRET enzymatic activity assay, PI3Kγ
# Assay type: biochemical
# study conditions: Table 2a; same assay; read-out: PI3Kγ IC50
What pIC50 was measured for each of the following?
One number for each entry, as −log10 of the molar value.

smiles_record=C[C@H](Nc1nc(N)nc(N)c1C(F)(F)F)c1nc2cccc(Cl)c2c(=O)n1-c1cc[nH]n1 outcome_measure=pIC50 assay_result=6.00
smiles_record=N#Cc1c(N[C@H](c2nc3c(Cl)cccc3c(=O)n2-c2cc[nH]n2)C2CC2)nc(N)nc1C(F)F outcome_measure=pIC50 assay_result=5.16
smiles_record=C[C@H](Nc1ncnc2scc(C#N)c12)c1nc2cccc(Cl)c2c(=O)n1-c1cc[nH]n1 outcome_measure=pIC50 assay_result=7.85

INPUT: Recorded pIC50 for `C[C@H](Nc1nc(N)nc(C(F)F)c1C#N)c1nc2c(Cl)cc(F)cc2c(=O)n1-c1cc[nH]n1` , please?
OUTPUT: 5.89

* * *

# system tested: PI3Kβ (Homo sapiens, UniProt P42338)
# Construct: made in house
# Sequence (P42338 whole entry): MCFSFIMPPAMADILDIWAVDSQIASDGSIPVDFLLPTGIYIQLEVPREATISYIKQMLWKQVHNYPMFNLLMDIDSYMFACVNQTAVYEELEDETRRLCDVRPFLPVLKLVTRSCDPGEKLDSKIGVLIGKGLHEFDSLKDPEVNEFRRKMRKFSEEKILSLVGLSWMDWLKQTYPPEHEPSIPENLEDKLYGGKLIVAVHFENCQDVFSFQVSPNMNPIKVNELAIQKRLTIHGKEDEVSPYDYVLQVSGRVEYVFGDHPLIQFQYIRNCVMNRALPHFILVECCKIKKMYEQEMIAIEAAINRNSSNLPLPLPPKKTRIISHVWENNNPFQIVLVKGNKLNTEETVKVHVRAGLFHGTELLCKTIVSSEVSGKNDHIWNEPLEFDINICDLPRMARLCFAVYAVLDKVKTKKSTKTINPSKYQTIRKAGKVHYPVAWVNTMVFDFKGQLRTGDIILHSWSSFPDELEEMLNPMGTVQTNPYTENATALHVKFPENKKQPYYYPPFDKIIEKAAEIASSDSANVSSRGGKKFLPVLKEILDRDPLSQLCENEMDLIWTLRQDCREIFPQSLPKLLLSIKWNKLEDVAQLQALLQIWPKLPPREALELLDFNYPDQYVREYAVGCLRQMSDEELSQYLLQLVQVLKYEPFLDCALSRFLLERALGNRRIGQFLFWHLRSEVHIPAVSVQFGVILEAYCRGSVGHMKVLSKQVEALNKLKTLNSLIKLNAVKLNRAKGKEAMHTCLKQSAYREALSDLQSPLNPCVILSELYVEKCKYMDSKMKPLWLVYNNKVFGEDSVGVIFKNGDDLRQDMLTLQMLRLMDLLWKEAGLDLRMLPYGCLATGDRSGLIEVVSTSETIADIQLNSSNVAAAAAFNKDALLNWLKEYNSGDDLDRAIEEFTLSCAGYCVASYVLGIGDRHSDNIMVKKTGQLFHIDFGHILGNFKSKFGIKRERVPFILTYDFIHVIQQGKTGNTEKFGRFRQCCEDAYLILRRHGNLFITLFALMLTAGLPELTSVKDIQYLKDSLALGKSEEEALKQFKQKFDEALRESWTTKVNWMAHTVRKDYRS
# Sequence (P27986 whole entry partner): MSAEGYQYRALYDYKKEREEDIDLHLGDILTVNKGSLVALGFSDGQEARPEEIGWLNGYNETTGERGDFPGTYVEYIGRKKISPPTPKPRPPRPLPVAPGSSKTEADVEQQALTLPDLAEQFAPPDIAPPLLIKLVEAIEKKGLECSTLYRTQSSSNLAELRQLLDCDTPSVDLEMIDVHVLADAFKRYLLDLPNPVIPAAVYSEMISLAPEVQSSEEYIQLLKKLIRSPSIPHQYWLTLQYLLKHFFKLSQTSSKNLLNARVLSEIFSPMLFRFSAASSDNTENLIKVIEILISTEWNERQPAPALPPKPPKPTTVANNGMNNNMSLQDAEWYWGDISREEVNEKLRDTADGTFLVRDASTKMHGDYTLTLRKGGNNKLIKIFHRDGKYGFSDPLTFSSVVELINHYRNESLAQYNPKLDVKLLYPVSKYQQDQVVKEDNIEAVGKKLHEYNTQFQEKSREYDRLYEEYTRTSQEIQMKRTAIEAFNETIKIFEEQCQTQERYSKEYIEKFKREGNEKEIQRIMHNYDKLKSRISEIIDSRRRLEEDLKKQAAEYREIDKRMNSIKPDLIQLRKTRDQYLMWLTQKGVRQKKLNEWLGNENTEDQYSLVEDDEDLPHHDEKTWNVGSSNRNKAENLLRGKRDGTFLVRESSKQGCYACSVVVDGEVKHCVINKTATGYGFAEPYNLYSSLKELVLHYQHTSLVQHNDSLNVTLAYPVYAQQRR
# experiment summary: TR-FRET enzymatic activity assay, PI3Kβ
# Type: biochemical
# study conditions: Table 2a; same assay
outcome measure: IC50 (nM)
Answers are plain numbers, in nM.

Worked cases, IC50 given:
smiles_record=C[C@H](Nc1nc(C(F)F)nc(N)c1C#N)c1nc2cccc(Cl)c2c(=O)n1-c1cc[nH]n1 outcome_measure=IC50 assay_result=700
smiles_record=Cc1c[nH]nc1-n1c([C@@H](Nc2nc(N)nc(C)c2C#N)C2CC2)nc2cccc(Cl)c2c1=O outcome_measure=IC50 assay_result=31
smiles_record=N#Cc1c(N[C@H](c2nc3c(Cl)cc(F)cc3c(=O)n2-c2cn[nH]c2)C2CC2)nc(N)nc1C(F)F outcome_measure=IC50 assay_result=8
smiles_record=C[C@H](Nc1nc(N)nc(N)c1C#N)c1nc2cc(F)cc(F)c2c(=O)n1-c1cc[nH]n1 outcome_measure=IC50 assay_result=11
smiles_record=Nc1nc(N)c(Cl)c(N[C@H](c2nc3c(C(F)(F)F)cccc3c(=O)n2-c2cc[nH]n2)C2CC2)n1 outcome_measure=IC50 assay_result=37
smiles_record=C[C@H](Nc1nc(N)nc(N)c1C#N)c1nc2ccc(Cl)c(C(F)F)c2c(=O)n1-c1cc[nH]n1 outcome_measure=IC50 assay_result=7

Now look at this one.
INPUT: Find IC50 (PI3Kβ (Homo sapiens, UniProt P42338)) for the entry `C[C@H](Nc1nc(N)nc(C(F)F)c1C#N)c1nc2c(F)ccc(Cl)c2c(=O)n1-c1cc[nH]n1`
OUTPUT: 6

* * *

# system tested: PI3Kδ (Homo sapiens)
# Construct: made in house
# experiment summary: TR-FRET enzymatic activity assay, PI3Kδ
# Type: biochemical
# study conditions: Table 2; TR-FRET, 2x Km ATP, 30 minutes at 25° C.
outcome measure: IC50 (nM)
One number for each entry, in nM.

Worked examples follow.
compound="Nc1nc(N)c(Cl)c(N[C@H](c2nc3c(Cl)cccc3c(=O)n2-c2cc[nH]n2)C2CC2)n1 [Compound 13]" assay_result=39
compound="CC[C@H](Nc1ncnn2ccnc12)c1nc2c(Cl)ccc(Cl)c2c(=O)n1-c1cc[nH]n1 [Compound 43]" assay_result=9
compound="Nc1nc(N)c(Cl)c(N[C@H](c2nc3cccc(Cl)c3c(=O)n2-c2cc(Cl)[nH]n2)C2CC2)n1 [Compound 14]" assay_result=51
compound="O=c1c2c(Cl)ccc(Cl)c2nc([C@@H](Nc2ncnc3scnc23)C2CC2)n1-c1cc[nH]n1 [Compound 37]" assay_result=0.6
compound="O=c1c2c(Cl)ccc(Cl)c2nc([C@@H](Nc2ncnc3scnc23)C2CC2)n1-c1cn[nH]c1 [Compound 38]" assay_result=4

Hi, could you look up IC50 for each item in my list?
1. CC[C@H](Nc1ncnn2ccnc12)c1nc2c(Cl)ccc(Cl)c2c(=O)n1-c1cn[nH]c1 [Compound 40]
2. N#Cc1c(N)nc(N)nc1N[C@H](c1nc2cccc(Cl)c2c(=O)n1-c1cn[nH]c1)C1CC1 [Compound 17]

OUTPUT:
38
0.6

* * *

# system tested: PI3Kδ (Homo sapiens, UniProt O00329)
# Construct: made in house
# Sequence (O00329 whole entry): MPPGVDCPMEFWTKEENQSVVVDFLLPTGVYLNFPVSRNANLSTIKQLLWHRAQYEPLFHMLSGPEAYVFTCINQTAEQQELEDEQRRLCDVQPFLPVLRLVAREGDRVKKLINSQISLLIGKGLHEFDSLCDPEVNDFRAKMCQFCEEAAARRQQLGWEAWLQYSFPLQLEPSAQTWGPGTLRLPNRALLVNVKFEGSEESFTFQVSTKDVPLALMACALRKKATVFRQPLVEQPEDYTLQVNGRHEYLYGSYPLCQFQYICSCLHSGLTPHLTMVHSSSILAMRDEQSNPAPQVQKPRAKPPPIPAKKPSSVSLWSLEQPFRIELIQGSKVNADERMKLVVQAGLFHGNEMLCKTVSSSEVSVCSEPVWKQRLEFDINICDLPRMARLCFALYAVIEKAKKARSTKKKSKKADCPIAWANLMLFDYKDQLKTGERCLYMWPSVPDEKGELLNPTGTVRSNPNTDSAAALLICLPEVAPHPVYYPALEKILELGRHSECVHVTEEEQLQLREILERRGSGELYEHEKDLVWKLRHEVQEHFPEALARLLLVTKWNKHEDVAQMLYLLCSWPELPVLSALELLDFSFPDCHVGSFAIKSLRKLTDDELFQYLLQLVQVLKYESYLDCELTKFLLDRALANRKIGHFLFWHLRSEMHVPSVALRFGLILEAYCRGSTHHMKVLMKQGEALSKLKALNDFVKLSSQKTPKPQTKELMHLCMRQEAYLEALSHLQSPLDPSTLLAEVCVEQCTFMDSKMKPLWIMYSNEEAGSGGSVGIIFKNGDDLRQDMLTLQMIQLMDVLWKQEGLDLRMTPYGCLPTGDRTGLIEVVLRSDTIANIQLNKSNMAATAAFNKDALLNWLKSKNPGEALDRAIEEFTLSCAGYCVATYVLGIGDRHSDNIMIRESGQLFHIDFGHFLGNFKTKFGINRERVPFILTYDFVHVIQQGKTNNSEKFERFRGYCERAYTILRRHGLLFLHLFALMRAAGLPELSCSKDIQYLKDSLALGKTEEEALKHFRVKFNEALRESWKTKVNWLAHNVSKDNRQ
# Sequence (P27986 whole entry partner): as the sequence (P27986 whole entry partner) above
# experiment summary: TR-FRET enzymatic activity assay, PI3Kδ
# Type: biochemical
# study conditions: Table 2a; same assay
Answer each item with its documented IC50.
Give bare numbers, in nM.

compound="N#Cc1c(N)nc(N)nc1N[C@H](c1nc2cccc(C(F)F)c2c(=O)n1-c1cc[nH]n1)C1CC1 [Compound 214]" assay_result=0.6
compound="C[C@H](Nc1nc(N)nc(C(F)F)c1C#N)c1nc2c(F)ccc(F)c2c(=O)n1-c1cc[nH]n1 [Compound 192]" assay_result=21
compound="N#Cc1c(N[C@H](c2nc3c(F)cc(F)cc3c(=O)n2-c2cc[nH]n2)C2CC2)nc(N)nc1C(F)F [Compound 195]" assay_result=24
compound="C[C@H](NC(=O)c1nc(Cl)c(N)nc1N)c1nc2cccc(Cl)c2c(=O)n1-c1cc[nH]n1 [Compound 276]" assay_result=36
compound="Cc1c[nH]nc1-n1c([C@@H](Nc2nc(N)nc(C)c2C#N)C2CC2)nc2c(C#N)cccc2c1=O [Compound 203]" assay_result=5

The following compounds each have a reported value; give each one's IC50.
1. C[C@H](Nc1nc(N)nc(N)c1C#N)c1nc2cc(F)cc(Cl)c2c(=O)n1-c1cc[nH]n1 [Compound 237]
2. Nc1nc(N)c(Cl)c(N[C@H](c2nc3cccc(C(F)F)c3c(=O)n2-c2cc[nH]n2)C2CCC2)n1 [Compound 132]

OUTPUT:
[2, 42]

* * *

# system tested: PI3Kγ (Homo sapiens)
# Construct: made in house
# experiment summary: TR-FRET enzymatic activity assay, PI3Kγ
# Type: biochemical
# study conditions: Table 2a; same assay; read-out: PI3Kγ IC50
For each of the compounds below, state its IC50.
One number for each entry, in nM.

Example cases with answers are listed next.
smiles_record=Cc1ccc(Cl)c2nc([C@H](C)Nc3nc(N)nc(C(F)F)c3C#N)n(-c3cc[nH]n3)c(=O)c12 assay_result=2100
smiles_record=CC[C@H](Nc1nc(N)nc(N)c1C#N)c1nc2c(Cl)cc(F)cc2c(=O)n1-c1cc[nH]n1 assay_result=3900
smiles_record=Cc1c[nH]nc1-n1c([C@@H](Nc2nc(N)nc(C)c2C#N)C2CC2)nc2cccc(Cl)c2c1=O assay_result=960

Each compound below has a recorded value; state its IC50.
1. C[C@H](Nc1nc(N)nc(N)c1Cl)c1nc2cccc(Cl)c2c(=O)n1-c1cc(N)[nH]n1
2. C[C@H](NC(=O)c1nc(Cl)c(N)nc1N)c1nc2c(F)ccc(Cl)c2c(=O)n1-c1cc[nH]n1
3. C[C@H](NC(=O)c1nc(Cl)c(N)nc1N)c1nc2c(F)ccc(Cl)c2c(=O)n1-c1cn[nH]c1
4. N#Cc1c(N[C@H](c2nc3cccc(Cl)c3c(=O)n2-c2cc[nH]n2)C2CC2)nc(N)nc1C(F)F

OUTPUT:
1: 5400; 2: 390; 3: 590; 4: 1100

* * *

# system tested: PI3Kδ (Homo sapiens)
# Construct: made in house
# experiment summary: TR-FRET enzymatic activity assay, PI3Kδ
# Assay type: biochemical
# study conditions: Table 2a; same assay
outcome measure: IC50 (nM)
Give bare numbers, in nM.

Study these solved cases before continuing.
smiles_record=C[C@H](Nc1nc(N)nc(N)c1Cl)c1nc2c(C(F)F)cccc2c(=O)n1-c1cc[nH]n1 assay_result=160
smiles_record=C[C@H](Nc1nc(N)nc(N)c1Cl)c1nc2ccccc2c(=O)n1-c1cc[nH]n1 assay_result=40
smiles_record=Cc1ccc(Cl)c2nc([C@H](C)Nc3nc(N)nc(N)c3Cl)n(-c3cc[nH]n3)c(=O)c12 assay_result=3

For every item below, please supply its IC50.
1. C[C@H](Nc1nc(N)nc(C(F)F)c1C#N)c1nc2c(Cl)cc(F)cc2c(=O)n1-c1cn[nH]c1
2. C[C@H](Nc1nc(N)nc(N)c1C#N)c1nc2cccc(Cl)c2c(=O)n1-c1c[nH]cn1
3. N#Cc1c(N)nc(N)nc1N[C@H](c1nc2cccc(C(F)(F)F)c2c(=O)n1-c1cc[nH]n1)C1CC1
4. Cc1c[nH]nc1-n1c([C@@H](Nc2nc(N)nc(N)c2C#N)C2CC2)nc2cccc(Cl)c2c1=O
5. C[C@H](Nc1nc(N)nc(N)c1Cl)c1nc2cccc(C(F)(F)F)c2c(=O)n1-c1cc[nH]n1
6. C[C@@H](Nc1nc(N)nc(N)c1C#N)c1nc2cccc(C(F)F)c2c(=O)n1-c1cc[nH]n1
7. C[C@H](Nc1nc(N)nc(N)c1Cl)c1nc2c(C(F)F)cc(F)cc2c(=O)n1-c1cc[nH]n1

OUTPUT:
1: 9; 2: 0.7; 3: 2; 4: 4; 5: 6; 6: 8; 7: 110

Record IC50 per entry; entries follow.
1. C[C@H](Nc1nc(N)nc(C(F)F)c1C#N)c1nc2cccc(C(F)F)c2c(=O)n1-c1cn[nH]c1
2. N#Cc1c(N)nc(N)nc1N[C@H](c1nc2cccc(Cl)c2c(=O)n1-c1cc[nH]n1)C1CCC1
3. C[C@H](Nc1nc(N)nc(N)c1C#N)c1nc2cccc(C(F)F)c2c(=O)n1-c1cn[nH]c1

OUTPUT:
1. 27
2. 2
3. 0.7
